The reported measurements were obtained from PubChem BioAssay AID540333.

Experiment: antivirals protecting cells from dengue CPE – CPE readout, HTS (AID 540333)
Conditions: Dengue virus CPE inhibition in host cells, at 20 µM; hits give high values
Hit rate of the full screen: of about 10,000 compounds, about 320 (3.2%) were called active. Many of the other results were omitted from the sample, so actives are more common in it than they were.
measured_quantity: CPE inhibition

These solved cases illustrate the format of a correct answer.
{"compound_string": "CCOC(=O)c1c(NC(=O)CSC(=S)N2CCOCC2)sc(C)c1C", "CPE inhibition": "0.065% (inactive)"}
{"compound_string": "CCCCC[C@H]1CN(CCCC)C(=O)[C@@H]1CC(=O)NCc1ccccc1", "CPE inhibition": "3.67% (inactive)"}
{"compound_string": "CC(C)(Oc1ccc(Cl)cc1)C(=O)N(Cc1ccccc1)c1ccccn1", "CPE inhibition": "11% (active)"}

Now turn to the next compound.
QUERY: Annotate the compound COc1ccc(CN2C[C@H](Cc3ccccc3)[C@@H](CC(=O)Nc3ccccc3)C2=O)cc1 with its measured CPE inhibition.
RESULT: 13.5% (active)

###

Assay: antivirals protecting cells from dengue CPE – CPE readout, HTS (AID 540333)
Details: Dengue virus CPE inhibition in host cells, at 20 µM
About 320 (3.2%) of roughly 10,000 compounds were called active. Rule as the data show it: active = CPE inhibition mostly above about 9.1% (no sharp cut-off); inactive = mostly below about 7.2%. The list comes from a sample in which actives are over-represented; it also holds close analogues and randomly drawn compounds.
One label from this list, please: true for active, false for inactive

Examples from the recorded data:
{"molecule": "N#Cc1c(-c2ccccc2)nc(SCC(=O)Nc2ccccc2)[nH]c1=O", "class_assignment": "false"}
{"molecule": "CC(NC(=O)/C=C/c1cnc2ccccc2n1)C12CC3CC(CC(C3)C1)C2 (stereo unspecified)", "class_assignment": "true"}
{"molecule": "COc1cc(C#Cc2c(C=O)n(C)c3ccccc23)cc(OC)c1", "class_assignment": "true"}
{"molecule": "Nc1ccc(-n2nnnc2CN2CCOCC2)cc1", "class_assignment": "false"}
{"molecule": "O=C(C[n+]1cccc(CNC(=O)c2ccc(OC(F)F)cc2)c1)Nc1cccc(C(F)(F)F)c1", "class_assignment": "false"}

QUERY: For O=C(N/N=C/c1ccccn1)C12CC3CC(CC(C3)C1)C2 , what call appears in the results of this test?
RESULT: false

###

Experiment: antivirals protecting cells from dengue CPE – CPE readout, HTS (AID 540333)
Details: Dengue virus CPE inhibition in host cells, at 20 µM
Among all 10,000 compounds or so, about 320 (3.2%) were called active. Rule as the data show it: active = CPE inhibition mostly above about 9.1% (no sharp cut-off); inactive = mostly below about 7.2%. The sample as a whole holds a higher share of actives than the screen did.
Respond using exactly one of the listed classes: 1 (active), 0 (inactive)

{"compound": "O=S(=O)(c1ccc2ccccc2c1)N1CCN(C(=S)Nc2ccc(F)cc2)CC1", "class_assignment": 1}
{"compound": "NS(=O)(=O)c1ccc(NC(=S)N2CCN(c3cccc(Cl)c3)CC2)cc1", "class_assignment": 0}
{"compound": "Cc1nn(Cc2ccc(C(=O)N3N=C(C(F)F)CC3(O)C(F)F)o2)c(C)c1[N+](=O)[O-] (stereo not given)", "class_assignment": 0}
{"compound": "CCN(CC)c1ccc(C(=O)OCC(=O)Nc2sccc2C#N)cc1", "class_assignment": 0}
{"compound": "O=C(C[n+]1cc(-c2ccccc2)n2c1CCC2)Nc1nc(-c2ccc(F)cc2)cs1", "class_assignment": 1}

QUERY: Hi, do you know how O=C(Nc1ccc(F)cc1)C(c1ccccc1)N1CCN(S(=O)(=O)c2ccc3ccccc3c2)CC1 (stereo not given) came out in this test?
RESULT: 0

QUERY: // outcome(item) with item = O=S(=O)(c1ccccc1)N1CCN(C(=S)Nc2ccc(F)cc2)CC1
RESULT: 0

###

Assay: antivirals protecting cells from dengue CPE – CPE readout, HTS (AID 540333)
Settings: Dengue virus CPE inhibition in host cells, at 20 µM; hits give high values
The campaign covered roughly 10,000 compounds. About 320 (3.2%) were called active. This is one part of a sample in which actives are shown more often than they occur.
measured_quantity: CPE inhibition

Some solved entries appear below for comparison.
{"compound": "COc1cccc(NC(=O)CCSc2ccc(C)cc2)c1", "CPE inhibition": "inactive"}
{"compound": "Cc1cc(C)nc(Sc2ccc([N+](=O)[O-])cc2[N+](=O)[O-])n1", "CPE inhibition": "14.6% (active)"}
{"compound": "Cc1cc(C)nc(NS(=O)(=O)c2ccc(NC(=O)C3(c4ccccc4)CCCC3)cc2)n1", "CPE inhibition": "inactive"}
{"compound": "CSc1ccc(/C=C(\\C#N)C(=O)NC2CCCCC2C)cc1 (configuration not stated)", "CPE inhibition": "18.5% (active)"}
{"compound": "CCCCN(C)C(=S)Nc1ccc(Oc2ccccc2)cc1", "CPE inhibition": "3.21% (inactive)"}

QUERY: Output CPE inhibition of O=S(=O)(NCCCc1ccccc1)c1cccc2nsnc12
RESULT: 0.135% (inactive)

QUERY: In one line, give reported CPE inhibition of the entry CNC(=O)CSc1nnc(SCCC(=O)O)s1 .
RESULT: 0.415% (inactive)

QUERY: Return value of CPE inhibition for input CCCCCCCCNC(=O)/C(C#N)=C/c1ccc(SC)cc1 , no commentary.
RESULT: 0.185% (inactive)

QUERY: Please report CPE inhibition for the following compound: Cc1cnc(C(=O)OCC(=O)Nc2cccc(S(=O)(=O)N3CCCCC3)c2)cn1
RESULT: inactive

QUERY: Complete the entry with CPE inhibition for O=C(Nc1ccc(F)cc1)c1ccccc1Oc1ccc(C(F)(F)F)cc1[N+](=O)[O-]
RESULT: 9.71% (inactive)

QUERY: Hello, please tell me recorded CPE inhibition for this one: CCCc1nnc(NC(=O)CCC(=O)N2CCN(C3c4ccccc4-c4ccccc43)CC2)s1
RESULT: inactive

QUERY: Kindly indicate its recorded CPE inhibition. Item: Cc1cc(C)n(C(=O)c2ccc([N+](=O)[O-])cc2[N+](=O)[O-])n1
RESULT: 0.325% (inactive)

QUERY: Answer with the recorded CPE inhibition for the compound listed here: Fc1cccc(NC(=S)NCCN2CCOCC2)c1
RESULT: 0.255% (inactive)

QUERY: Check the records and state CPE inhibition for O=C(COC(=O)Cc1c[nH]c2ccccc12)Nc1cccc2ccccc12
RESULT: 0.635% (inactive)

QUERY: Give the reported value of CPE inhibition for this record: COc1cc(NC(=O)COC(=O)/C=C/c2ccc(Cl)cc2Cl)cc(OC)c1
RESULT: 8.61% (inactive)

###

Experiment: antivirals protecting cells from dengue CPE – CPE readout, HTS (AID 540333)
Conditions: Dengue virus CPE inhibition in host cells, at 20 µM
About 320 (3.2%) of roughly 10,000 compounds were called active. Cut-off read from the data, not from the text of the source: active = CPE inhibition mostly above about 9.1% (no sharp cut-off); inactive = mostly below about 7.2%. The entries come from a sample that favours actives as a whole.
Bench note: report the call from 1 (yes) = active, 0 (no) = inactive

Check out these entries, answers already filled in.
{"compound": "O=C(Nc1ccc(N2C(=O)c3cccc4cccc(c34)C2=O)cc1)c1ccc(N2CCCCC2)c([N+](=O)[O-])c1", "class_assignment": "0 (no)"}
{"compound": "CC1CCC(=NNc2ccc(C(F)(F)F)cc2[N+](=O)[O-])CC1 (stereo not given)", "class_assignment": "0 (no)"}
{"compound": "Cc1ccc2nc(N3CC(=O)Nc4ccccc43)nc(-c3ccccc3)c2c1", "class_assignment": "0 (no)"}

QUERY: Returns: the outcome recorded for O=C(Nc1nc2ccc3ccccc3c2s1)c1ccc(N2CCCCC2)c([N+](=O)[O-])c1 in this assay.
RESULT: 1 (yes)

QUERY: Status in this test for CC(=O)c1ccc(NC(=O)c2cc(Cl)sc2Cl)cc1 ?
RESULT: 0 (no)

###

Test: antivirals protecting cells from dengue CPE – CPE readout, HTS (AID 540333)
Conditions: Dengue virus CPE inhibition in host cells, at 20 µM
Screen size: about 10,000 compounds; about 320 (3.2%) were called active. Rule as the data show it: active = CPE inhibition mostly above about 9.1% (no sharp cut-off); inactive = mostly below about 7.2%. What follows is part of a selection rich in actives, with near analogues and random picks from the rest.
The reply should be one of these categories: active, inactive

For orientation, consider the following solved cases.
{"compound": "O=C(COC(=O)c1ccccc1-c1nc2ccccc2s1)NC1CCS(=O)(=O)C1 (centres undefined)", "class_assignment": "inactive"}
{"compound": "COc1ccccc1OCCOCCOc1ccccc1Cl", "class_assignment": "inactive"}
{"compound": "Cc1cc(C)nc(N/N=C/C2=C(N3CCOCC3)C(=C/c3ccccc3)/CC2)n1", "class_assignment": "active"}
{"compound": "CC1(C)CC(=O)C2=C(C1)NC1=C(C(=O)c3ccccc31)C2c1ccc(O)cc1 (centres undefined)", "class_assignment": "inactive"}
{"compound": "CC(C)CNC(=S)Nc1ccc(S(N)(=O)=O)cc1", "class_assignment": "inactive"}
{"compound": "O=C(CNC(=O)c1cccc(Cl)c1)N/N=C/C=C/c1ccccc1", "class_assignment": "inactive"}

QUERY: Outcome? COc1cccc(NC(=S)NCCN2CCOCC2)c1
RESULT: inactive

QUERY: Returns: the outcome recorded for Cc1ccccc1-n1c(-c2csc(C)c2C)n[nH]c1=S in this assay.
RESULT: inactive

QUERY: Give the logged outcome of this assay for the following compound: CC1(c2nnc(Cc3ccccc3)o2)CC(c2ccccc2F)=NO1 (centres undefined)
RESULT: inactive

QUERY: Field: outcome | Entry: CCn1c(SCC(=O)N2c3ccccc3CCc3ccccc32)nnc1-c1ccc(OC)cc1
RESULT: inactive

QUERY: Can you look up the reported call for O=[N+]([O-])c1cccc(/C=N/Nc2nc(NCc3ccccc3)nc(N3CCOCC3)n2)c1 for me?
RESULT: inactive

QUERY: Test call, this compound: Cc1cc(C)nc(N/N=C/C2=C(N3CCOCC3)C(=C\c3ccc(Cl)cc3)/CC2)n1
RESULT: active

QUERY: Test call, this compound: S=C(NCCN1CCOCC1)Nc1ccccc1Cl
RESULT: inactive

QUERY: Recorded test call requested for CC(=O)c1cccc(NC(=O)C(OC(=O)c2cccs2)c2ccccc2)c1 (centres undefined)
RESULT: inactive

QUERY: Look up the recorded call for CS(=O)(=O)N1CCN(c2ccc([N+](=O)[O-])c(NCc3ccc(Cl)cc3)c2)CC1 in this test.
RESULT: inactive

QUERY: Recorded call for Cc1cc(C)nc(N/N=C/C=C/c2ccccc2)n1 ?
RESULT: inactive

QUERY: Just curious, what result did CC(C)(C)[C@H]1C=C(C(=O)Nc2ccccc2)O[C@@H](OCCCCO)C1 get here?
RESULT: inactive

QUERY: I would be grateful if you could indicate the recorded call for Cc1c(Cl)cccc1NC(=S)NCc1cccn1C .
RESULT: inactive

QUERY: Hi team, can someone confirm the assay call for CCOc1cc(/C=C/c2cc(C(=O)O)c3ccccc3n2)ccc1O ?
RESULT: inactive

QUERY: Each compound tested received a call. Report the one for Cn1c(SCC(=O)N2c3ccccc3CCc3ccccc32)nnc1-c1cc2ccccc2cc1O .
RESULT: active
